FYI, the data here is from patent US20220363770A1.

study-system: human CGRP receptor (human CRLR / human RAMP1 heterodimer) (human, UniProt Q16602 23-461; O60894 27-148)
Sequence (Q16602 23-461 limits assumed, chain 1 of 2): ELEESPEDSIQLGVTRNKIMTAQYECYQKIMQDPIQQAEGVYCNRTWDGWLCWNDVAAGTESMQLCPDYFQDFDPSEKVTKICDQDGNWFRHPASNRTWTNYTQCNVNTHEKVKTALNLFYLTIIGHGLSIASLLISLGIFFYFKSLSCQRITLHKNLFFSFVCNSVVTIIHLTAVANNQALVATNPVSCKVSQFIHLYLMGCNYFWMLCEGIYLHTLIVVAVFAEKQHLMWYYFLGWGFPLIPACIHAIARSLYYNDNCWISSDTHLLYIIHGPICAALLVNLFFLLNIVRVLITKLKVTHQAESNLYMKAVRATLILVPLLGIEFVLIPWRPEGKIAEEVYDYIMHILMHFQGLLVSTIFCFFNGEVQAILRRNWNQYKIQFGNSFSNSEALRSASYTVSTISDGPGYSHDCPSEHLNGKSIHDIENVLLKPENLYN
Sequence (O60894 27-148 limits assumed, chain 2 of 2): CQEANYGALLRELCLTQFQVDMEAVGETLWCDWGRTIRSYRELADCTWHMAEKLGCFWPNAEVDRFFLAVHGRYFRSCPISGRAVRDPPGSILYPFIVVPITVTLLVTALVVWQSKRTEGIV
protocol-summary: cell-based or functional assay
Would you mind telling me the reported Run 2 IC50 (nM), cell-based cAMP assay, SK-N-MC cells, 3 nM human α-CGRP of each entry?
Please make sure the unit comes right after the number.

Ask: What value of Run 2 IC50 (nM), cell-based cAMP assay, SK-N-MC cells, 3 nM human α-CGRP has been recorded for this entry: anti-CGRP receptor variant antibody 10, bivalent monoclonal antibody (antibody, human IgG1, lambda, N297G, V domains shown) VH: QVQLVESGGGVVQPGRSLRLSCAASGFFFGSYGMHWVRQAPGKGLEWVAVISFAGEIEHYVDSVKGRFTISRDNSKNTLFLQMNSLRAEDTAVYYCARDRLNYYESSGYYHYKYYGMAVWGQGTTVTVSS VL: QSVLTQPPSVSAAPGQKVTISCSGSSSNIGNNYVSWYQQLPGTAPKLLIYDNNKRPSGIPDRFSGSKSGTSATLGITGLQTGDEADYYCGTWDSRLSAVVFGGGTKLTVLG
Reply: 0.68 nM

Ask: Let us now turn to anti-CGRP receptor variant antibody 01, bivalent monoclonal antibody (antibody, human IgG1, lambda, N297G, V domains shown) VH: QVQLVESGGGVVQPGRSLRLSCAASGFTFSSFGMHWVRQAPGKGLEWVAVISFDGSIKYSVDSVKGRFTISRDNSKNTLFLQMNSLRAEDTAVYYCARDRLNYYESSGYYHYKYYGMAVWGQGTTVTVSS VL: QSVLTQPPSVSAAPGQKVTISCSGSYSNIGRYSVSWYQQLPGTAPKLLIYDNNKRPSGIPDRFSGSKSGTSATLGITGLQTGDEADYYCGTWDSRLSAVVFGGGTKLTVLG
Reply: 0.14 nM

Ask: Let us now turn to 4E4.2 parental antibody, bivalent monoclonal antibody (antibody, human IgG1, lambda, N297G, V domains shown) VH: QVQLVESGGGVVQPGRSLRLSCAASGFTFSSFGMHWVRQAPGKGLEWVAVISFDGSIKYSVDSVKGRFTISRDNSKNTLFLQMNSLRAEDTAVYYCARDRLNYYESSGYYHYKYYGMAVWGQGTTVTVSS VL: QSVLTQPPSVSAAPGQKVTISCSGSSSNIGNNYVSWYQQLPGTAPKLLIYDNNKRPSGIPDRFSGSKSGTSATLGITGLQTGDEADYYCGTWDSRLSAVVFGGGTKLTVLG
Reply: 0.56 nM
